The following molecules are listed with their measured residual activity values.
- assay_target: PRKCH (human) (UniProt P24723)
- Sequence (P24723 whole entry, looked up): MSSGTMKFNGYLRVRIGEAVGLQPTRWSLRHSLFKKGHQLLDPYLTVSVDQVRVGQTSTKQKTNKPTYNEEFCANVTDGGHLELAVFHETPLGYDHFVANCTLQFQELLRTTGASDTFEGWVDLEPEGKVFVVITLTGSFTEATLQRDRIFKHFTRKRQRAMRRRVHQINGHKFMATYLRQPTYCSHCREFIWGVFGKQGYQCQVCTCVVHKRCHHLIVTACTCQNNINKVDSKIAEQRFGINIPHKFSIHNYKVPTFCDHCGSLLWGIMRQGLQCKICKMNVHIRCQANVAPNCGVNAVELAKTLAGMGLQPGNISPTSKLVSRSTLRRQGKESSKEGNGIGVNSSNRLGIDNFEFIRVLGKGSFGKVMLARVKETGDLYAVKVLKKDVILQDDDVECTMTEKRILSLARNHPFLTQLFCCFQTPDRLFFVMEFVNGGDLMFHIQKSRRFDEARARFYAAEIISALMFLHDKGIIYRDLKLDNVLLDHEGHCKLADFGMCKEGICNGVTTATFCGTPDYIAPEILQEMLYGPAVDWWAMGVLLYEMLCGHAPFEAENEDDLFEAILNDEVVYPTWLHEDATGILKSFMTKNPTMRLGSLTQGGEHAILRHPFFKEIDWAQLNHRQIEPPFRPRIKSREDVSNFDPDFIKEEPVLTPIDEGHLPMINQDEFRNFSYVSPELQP
- procedure_text: radiometric filter-binding kinase assay, Kinase HotSpot
- stated_conditions: compound 0.5 µM; ATP 10 µM
Give the quantity in %, number only.

Please give measured residual activity of the following entry: `O=C(Nc1cccc(Nc2nccc(Nc3cccc(C(F)(F)F)c3)n2)c1)C1CC1`
98.6

Please give measured residual activity of the following entry: `COc1ccc(COc2ccc(Cc3cnc(N)nc3N)cc2OC)cc1`
88.6

Please give measured residual activity of the following entry: `c1ccc(-c2n[nH]cc2-c2ccnc3ccccc23)nc1`
94.6

Please give measured residual activity of the following entry: `O=C1Nc2ccc(Cl)cc2/C1=C/c1cc(Cl)c(O)c(Cl)c1`
90.8

Kindly review the next molecule as well.
Please give measured residual activity of the following entry: `CCOC(=O)c1c(C)[nH]c(/C=C2\C(=O)Nc3ccccc32)c1C`
94
